Sourced from the SangsterLogP compilation

Assay: method code SF, from DOI: 10.1021/bk-1995-0606.ch013
endpoint-name: logP

Here is how some molecules turned out for logP.
molecule	endpoint-name	reported
CC1(C)CCC(Cc2ccc(-c3ccccc3)cc2)C1(O)Cn1cncn1 (configuration not stated)	logP	4.64
Cc1ccc(CC2CCC(C)(C)C2(O)Cn2cncn2)cc1 (configuration not stated)	logP	3.43

(P) CCC1CCC(Cc2ccc(C(C)(C)C)cc2)C1(O)Cn1cncn1 (configuration not stated)
(Q) Cc1ccc(CC2CCCC2(O)Cn2cncn2)cc1 (configuration not stated)
Query block: // compare measured logP, left P , right Q , return larger Which one? Tell me its label.
Result block: P

(A) OC1(Cn2cncn2)CCCC1Cc1ccc(-c2ccccc2)cc1 (configuration not stated)
(B) OC1(Cn2cncn2)CCCC1Cc1ccccc1 (configuration not stated)
Query block: # returns the entry with the larger logP; inputs A and B Record your answer as the label of the chosen record.
Result block: A

---

endpoint-name: logP

compound	reported
OC1(Cn2cncn2)CCCC1Cc1ccc(Cl)cc1F (stereo not drawn)	3.27
OC1(Cn2cncn2)CCCC1Cc1ccc(C(F)(F)F)cc1 (stereo not drawn)	3.07
OC1(Cn2cncn2)CCCC1Cc1ccc(F)cc1 (stereo not drawn)	2.39

(A) OC1(Cn2cncn2)CCCC1Cc1ccccc1Cl (stereo not drawn)
(B) N#Cc1ccc(CC2CCCC2(O)Cn2cncn2)cc1 (stereo not drawn)
Query block: Please choose the item with the lower logP value from this pair: A and B In your reply, give the label of the chosen option.
Result block: B

(P) OC1(Cn2cncn2)CCCC1Cc1ccc(Cl)cc1Cl (stereo not drawn)
(Q) OC1(Cn2cncn2)CCCC1Cc1ccc(F)cc1F (stereo not drawn)
Query block: Two entries are listed, P and Q . Which one carries the higher logP? Please reply using the label of the selected record.
Result block: P

---

Assay: method code SF, from DOI: 10.1021/bk-1995-0606.ch013
endpoint-name: logP

compound	logP
CCC1CCC(Cc2ccc(Cl)cc2Cl)C1(O)Cn1cncn1 (stereo unspecified)	4.78
CC1(C)CCC(Cc2ccc(Br)cc2)C1(O)Cn1cncn1 (stereo unspecified)	3.99
CC(C)(C)c1ccc(CC2CCCC2(O)Cn2cncn2)cc1 (stereo unspecified)	3.97
CCCOC/C(=N\c1ccc(Cl)cc1C(F)(F)F)n1ccnc1	4.5
CC1(C)CCC(Cc2ccc(Cl)c(O)c2)C1(O)Cn1cncn1 (stereo unspecified)	3.16
CCC1CCC(Cc2ccc(F)cc2)C1(O)Cn1cncn1 (stereo unspecified)	3.3
CC1(C)CCC(Cc2ccc(Cl)cc2F)C1(O)Cn1cncn1 (stereo unspecified)	3.99
OC1(Cn2cncn2)CCCC1Cc1ccc(Br)cc1 (stereo unspecified)	3.27
CCC1CCC(Cc2ccc(Br)cc2)C1(O)Cn1cncn1 (stereo unspecified)	4.18
CCC1CCC(Cc2ccc(-c3ccccc3)cc2)C1(O)Cn1cncn1 (stereo unspecified)	4.83
CCC1CCC(Cc2ccc(Cl)cc2)C1(O)Cn1cncn1 (stereo unspecified)	4.02

---

endpoint-name: logP

compound	logP
OC1(Cn2cncn2)CCCC1Cc1c(F)cccc1F (stereo unspecified)	2.6
OC1(Cn2cncn2)CCCC1Cc1ccc(Cl)cc1 (stereo unspecified)	3.11
OC1(Cn2cncn2)CCCC1Cc1c(F)c(F)c(F)c(F)c1F (stereo unspecified)	3.16
OC1(Cn2cncn2)CCCC1Cc1cccc(Cl)c1 (stereo unspecified)	2.98
OC1(Cn2cncn2)CCCC1Cc1ccc(F)c(F)c1 (stereo unspecified)	2.51
OC1(Cn2cncn2)CCCC1Cc1cccc(C(F)(F)F)c1 (stereo unspecified)	3.07
